- system: Thrombin (Homo sapiens)
- test_details: Inhibition of purified human plasma thrombin using Boc-Asp(OBzl)-Pro-Arg-AMC substrate incubated for 30 mins by fluorescence based assay
readout_label: IC50 (nM)
Respond with the bare value in nM.

Worked examples, 3 molecules total:
{"columns": ["molecule", "IC50, nM"],
 "data": [
  ["COc1cc(C(=O)N2CCC(C)(C)C2)cc2nc(NCc3cccc(Cl)c3)oc12", 40],
  ["COc1cc(C(=O)N2CC[C@H](O)[C@@H](C)C2)cc2nc(NCc3cccc(Cl)c3)oc12", 120],
  ["COc1cc(C(=O)N2CCC(O)C(C)C2)cc2nc(NC3(c4cccc(Cl)c4)CCC3)oc12 (configuration not stated)", 8200]
]}

Request: I'm curious: which IC50 was measured for CCC1CC(O)C(C)CN1C(=O)c1cc(OC)c2oc(NCc3cccc(Cl)c3)nc2c1 (configuration not stated) tested on Thrombin (Homo sapiens)?
Response: 13

Request: I'm curious: which IC50 was measured for COc1cc(C(=O)N2CC(C)OCC2CO)cc2nc(N[C@H](C)c3cccc(Cl)c3)oc12 (some centres not stated) tested on Thrombin (Homo sapiens)?
Response: 10

Request: I'm curious: which IC50 was measured for CCCN(CC1CCOC1)C(=O)c1cc(Cl)c2oc(NCc3cccc(Cl)c3)nc2c1 (configuration not stated) tested on Thrombin (Homo sapiens)?
Response: 71

Request: I'm curious: which IC50 was measured for O=C(NCc1cccc(Cl)c1)c1cc(Cl)c2cn(CCn3cccn3)nc2c1 tested on Thrombin (Homo sapiens)?
Response: 225
